src = paper PMC4774972

Each item that follows carries a reported MIC.
Test system: K. pneumoniae CI Koprana 100650661:1, PmxR
Conditions: MIC K. pneumoniae CI Koprana 100650661:1, PmxR (µg/mL)
Bridge positions count the residues as written; N and C are the ends. Square brackets hold non-standard residues; d marks the D form. Peptide text beside a SMILES is read from it. * marks the point of attachment. dDab = NCC[C@@H](N)C(=O)O; Octanoyl = CCCCCCCC(=O)*; Dab = NCC[C@H](N)C(=O)O

- compound: "CCCCCCCC(=O)N[C@@H](CCN)C(=O)N[C@H](C(=O)N[C@@H](CCN)C(=O)N[C@H]1CCNC(=O)[C@H]([C@@H](C)O)NC(=O)[C@H](CCNC(=O)[C@@H](N)CCC(=O)O)NC(=O)[C@H](CCN)NC(=O)[C@H](CC(C)C)NC(=O)[C@@H](Cc2ccccc2)NC(=O)[C@H](CCN)NC1=O)[C@@H](C)O [Compound 19] (Octanoyl-[Dab]T[Dab][Dab][Dab][dF]L[Dab][Dab](Glu)T; lactam 4-C)"
  MIC: "> 32 µg/mL"
- compound: "CCCCCCCC(=O)N[C@H](CCN)C(=O)N[C@H](C(=O)NCC(=O)N[C@H]1CCNC(=O)[C@H]([C@@H](C)O)NC(=O)[C@H](CCN)NC(=O)[C@H](CCN)NC(=O)[C@H](CC(C)C)NC(=O)[C@@H](Cc2ccccc2)NC(=O)[C@H](CCN)NC1=O)[C@@H](C)O [Compound 40] (Octanoyl-[dDab]TG[Dab][Dab][dF]L[Dab][Dab]T; lactam 4-C)"
  MIC: "> 32 µg/mL"

Q: Tell me the measured MIC of CCCCCCCC(=O)N[C@@H](CCN)C(=O)N[C@H](C(=O)N[C@@H](CCN)C(=O)N[C@H]1CCNC(=O)[C@H]([C@@H](C)O)NC(=O)[C@H](CCN)NC(=O)[C@H](CCN)NC(=O)[C@H](CC(C)C)NC(=O)[C@@H](Cc2ccccc2)NC(=O)[C@H](CCN)NC1=O)[C@@H](C)O [Compound 11, polymyxin B3] (Octanoyl-[Dab]T[Dab][Dab][Dab][dF]L[Dab][Dab]T; lactam 4-C) , please.
A: > 128 µg/mL
